# Study system: LRRK2(G2019S mutation, GST-LRRK2(amino acids 970-2527)) (Homo sapiens (Human), UniProt Q5S007, G2019S)
# Sequence (Q5S007 970-2527 G2019S): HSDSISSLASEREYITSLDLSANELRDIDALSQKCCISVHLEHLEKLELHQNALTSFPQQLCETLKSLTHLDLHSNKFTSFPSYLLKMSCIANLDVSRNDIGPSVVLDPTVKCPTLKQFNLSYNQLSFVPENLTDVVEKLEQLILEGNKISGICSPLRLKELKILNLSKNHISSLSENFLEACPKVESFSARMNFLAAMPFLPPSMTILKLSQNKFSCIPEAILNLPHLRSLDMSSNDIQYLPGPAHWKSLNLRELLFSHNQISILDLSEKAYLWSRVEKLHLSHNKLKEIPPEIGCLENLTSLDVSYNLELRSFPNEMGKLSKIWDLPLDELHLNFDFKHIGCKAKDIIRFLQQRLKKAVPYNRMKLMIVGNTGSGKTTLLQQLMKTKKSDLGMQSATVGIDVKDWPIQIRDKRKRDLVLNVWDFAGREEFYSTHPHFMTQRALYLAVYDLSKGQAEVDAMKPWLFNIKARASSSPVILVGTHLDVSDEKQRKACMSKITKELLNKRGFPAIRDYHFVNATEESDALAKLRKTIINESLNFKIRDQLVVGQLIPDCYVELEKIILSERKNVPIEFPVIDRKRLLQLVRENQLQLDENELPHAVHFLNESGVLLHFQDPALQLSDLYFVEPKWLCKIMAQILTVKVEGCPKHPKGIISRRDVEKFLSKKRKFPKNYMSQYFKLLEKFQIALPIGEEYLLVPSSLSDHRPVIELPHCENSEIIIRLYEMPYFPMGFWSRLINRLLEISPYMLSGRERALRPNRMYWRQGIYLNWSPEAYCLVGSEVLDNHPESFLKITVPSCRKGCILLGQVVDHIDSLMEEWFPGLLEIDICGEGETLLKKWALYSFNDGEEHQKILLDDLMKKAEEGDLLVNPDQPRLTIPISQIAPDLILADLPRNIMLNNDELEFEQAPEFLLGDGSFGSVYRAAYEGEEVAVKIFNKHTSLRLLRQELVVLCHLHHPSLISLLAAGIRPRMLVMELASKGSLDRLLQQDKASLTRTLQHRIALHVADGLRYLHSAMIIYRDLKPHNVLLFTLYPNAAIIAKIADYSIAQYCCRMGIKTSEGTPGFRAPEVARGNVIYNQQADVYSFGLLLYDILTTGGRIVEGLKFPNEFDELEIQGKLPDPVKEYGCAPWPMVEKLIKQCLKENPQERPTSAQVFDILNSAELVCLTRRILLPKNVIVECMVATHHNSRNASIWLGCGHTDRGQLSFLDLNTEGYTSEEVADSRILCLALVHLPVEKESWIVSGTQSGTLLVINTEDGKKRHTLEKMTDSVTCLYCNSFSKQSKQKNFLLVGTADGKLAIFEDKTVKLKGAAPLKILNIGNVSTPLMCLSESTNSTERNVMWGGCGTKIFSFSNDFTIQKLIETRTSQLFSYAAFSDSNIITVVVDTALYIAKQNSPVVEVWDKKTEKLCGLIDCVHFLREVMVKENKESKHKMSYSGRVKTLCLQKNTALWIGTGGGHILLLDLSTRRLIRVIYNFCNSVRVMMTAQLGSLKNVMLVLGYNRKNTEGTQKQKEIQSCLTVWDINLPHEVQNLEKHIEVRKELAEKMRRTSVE
# Assay notes: LRRK2 Km ATP LanthaScreen Assay
# Type: biochemical
# Condition label: Examples P1-P18
Recorded metric: pIC50
pIC50 field: float, defined as -log10 of concentration (mol/L).

In the examples that follow, each entry is paired with its recorded pIC50.
Return reported pIC50. Input compound: N#Cc1ccc(-c2ccc3[nH]nc(-c4cc(N5CCOCC5)ncn4)c3c2)cc1
6.82

Return reported pIC50. Input compound: c1nc(-c2n[nH]c3ccc(-c4ccc5ncnn5c4)cc23)cc(N2CCOCC2)n1 [Example P2]
6.72

Return reported pIC50. Input compound: COc1cncc(-c2ccc3[nH]nc(-c4cc(N5CCOCC5)ncn4)c3c2)n1
7.74

Return reported pIC50. Input compound: CCN(CC)C(=O)c1ccc(-c2ccc3[nH]nc(-c4cc(N5CCOCC5)ncn4)c3c2)cc1
6.22

Return reported pIC50. Input compound: N#Cc1cc(-c2ccc3[nH]nc(-c4cc(N5CCOCC5)ncn4)c3c2)ccn1 [Example P1]
6.47

Continuing:
Return reported pIC50. Input compound: O=C(NCCO)c1ccc(-c2ccc3[nH]nc(-c4cc(N5CCOCC5)ncn4)c3c2)cc1
6.81

Return reported pIC50. Input compound: Cc1nocc1-c1ccc2[nH]nc(-c3cc(N4CCOCC4)ncn3)c2c1
7.23

Return reported pIC50. Input compound: COc1ncccc1-c1ccc2[nH]nc(-c3cc(N4CCOCC4)ncn3)c2c1
7.42

Return reported pIC50. Input compound: N#Cc1cccc(-c2ccc3[nH]nc(-c4cc(N5CCOCC5)ncn4)c3c2)c1
7.09

Return reported pIC50. Input compound: c1cc(-c2ccc3[nH]nc(-c4cc(N5CCOCC5)ncn4)c3c2)ccn1
7.01

Return reported pIC50. Input compound: O=S(=O)(c1ccc(-c2ccc3[nH]nc(-c4cc(N5CCOCC5)ncn4)c3c2)cc1)N1CCCC1
6.04

Return reported pIC50. Input compound: COc1cnc(-c2ccc3[nH]nc(-c4cc(N5CCOCC5)ncn4)c3c2)cn1
6.57

* * *

Consider the following molecules and their measured IC50 readings.
# Study system: LRRK2(G2019S mutation, GST-LRRK2(amino acids 970-2527)) (Homo sapiens (Human), UniProt Q5S007, G2019S)
# Assay notes: LRRK2 Km ATP LanthaScreen Assay
# Assay type: biochemical
# Condition label: Examples N1-N25
The reply should be a number in nM, with the unit left off.

Return reported IC50. Input molecule: CC(C)Oc1cc2c(-c3cc(N4CCN(CCCO)CC4)ncn3)n[nH]c2cc1F
3.1

Continuing:
Return reported IC50. Input molecule: CC(C)Oc1cc2c(-c3cc(N4CCC(F)(CO)CC4)ncn3)n[nH]c2cc1F
2.3

Return reported IC50. Input molecule: CC(C)Oc1cc2c(-c3cc(N4CCOC(C)(C)C4)ncn3)n[nH]c2cc1F
6.2

Return reported IC50. Input molecule: CC(C)Oc1cc2c(-c3cc(N4CC[C@H](CO)C4)ncn3)n[nH]c2cc1F
10.2

Return reported IC50. Input molecule: CC(C)Oc1cc2c(-c3cc(N4CCOC(C(F)(F)F)C4)ncn3)n[nH]c2cc1F (centres unmarked)
26.6

Return reported IC50. Input molecule: CC(C)Oc1cc2c(-c3cc(N4[C@H](C)COC[C@H]4C)ncn3)n[nH]c2cc1F
62.1

Return reported IC50. Input molecule: CC(C)Oc1cc2c(-c3cc(N4[C@H](C)COC[C@@H]4C)ncn3)n[nH]c2cc1F
5.4

Return reported IC50. Input molecule: COCC1CN(c2cc(-c3n[nH]c4cc(F)c(OC(C)C)cc34)ncn2)CCO1 (centres unmarked)
2.9
